# condition-description: segatella copri, 12 h, 2 µM;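 note: drug levels quantified by LC–MS prior to and following incubation with the bacterium to assess its biotransformation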
# Description: The drug is tested on Prevotella copri strain: DSM18205 for biotransformation. The drug concentrations were measured before and after a 12-h incubation by liquid-chromatography-coupled mass spectrometry (LC–MS)
measurement-label: Bacterial Biotransformation

• CC#CCn1c(N2CCC[C@@H](N)C2)nc2c1c(=O)n(Cc1nc(C)c3ccccc3n1)c(=O)n2C = Compound metabolized
• CCc1oc2ccccc2c1C(=O)c1cc(Br)c(O)c(Br)c1 = Compound NOT metabolized
• COc1ccc2c3c1O[C@H]1C[C@@H](O)C=C[C@@]31CCN(C)C2 = Compound metabolized
• CN1CCc2cccc3c2[C@H]1Cc1ccc(O)c(O)c1-3 = Compound NOT metabolized
• CC(C)(C)NC(=O)[C@H]1CC[C@H]2[C@@H]3CC[C@H]4NC(=O)C=C[C@]4(C)[C@H]3CC[C@]12C [FINASTERIDE] = Compound NOT metabolized
• CCOC(=O)[C@H](CCc1ccccc1)N[C@@H](C)C(=O)N1[C@H](C(=O)O)C[C@H]2CCCC[C@@H]21 = Compound metabolized
• C[C@]12CCC(=O)C=C1[C@@H]1C[C@@H]1[C@H]1[C@@H]3[C@@H]4C[C@@H]4[C@@]4(CCC(=O)O4)[C@@]3(C)CC[C@@H]12 = Compound NOT metabolized
• Cc1nc2n(c(=O)c1CCN1CCC(c3noc4cc(F)ccc34)CC1)CCCC2O (configuration not stated) = Compound metabolized
• C[C@@H]1CC[C@H]2[C@@H](C)C(=O)O[C@@H]3O[C@@]4(C)CC[C@@H]1[C@]32OO4 = Compound metabolized
• CN(C)CC(c1ccc(O)cc1)C1(O)CCCCC1.O=C(O)CCC(=O)O (configuration not stated) [DESVENLAFAXINE SUCCINATE] = Compound NOT metabolized
• CCCCc1nc(Cl)c(CO)n1Cc1ccc(-c2ccccc2-c2nn[nH]n2)cc1 = Compound NOT metabolized
• CCCCC1=NC2(CCCC2)C(=O)N1Cc1ccc(-c2ccccc2-c2nnn[nH]2)cc1 = Compound metabolized
• CN1C(=O)CC(C)(c2ccccc2)C1=O (configuration not stated) [METHSUXIMIDE] = Compound NOT metabolized
• CC(C(=O)O)c1ccc2c(c1)Cc1cccnc1O2 (configuration not stated) = Compound metabolized
• CCCCCCOC(=O)/N=C(/N)c1ccc(NCc2nc3cc(C(=O)N(CCC(=O)OCC)c4ccccn4)ccc3n2C)cc1.CS(=O)(=O)O [DABIGATRAN ETEXILATE MESYLATE] = Compound NOT metabolized
• CCC1(c2ccc(N)cc2)CCC(=O)NC1=O (configuration not stated) [AMINOGLUTETHIMIDE] = Compound NOT metabolized
• C#C[C@]1(O)CC[C@H]2[C@@H]3CCC4=Cc5oncc5C[C@]4(C)[C@H]3CC[C@@]21C = Compound metabolized
• O=P1(N(CCCl)CCCl)NCCCO1 (configuration not stated) [CYCLOPHOSPHAMIDE ANHYDROUS] = Compound NOT metabolized
• COc1cc2c(c(OC)c1OC)-c1ccc(OC)c(=O)cc1[C@@H](NC(C)=O)CC2 = Compound metabolized
• CNS(=O)(=O)Cc1ccc2[nH]cc(CCN(C)C)c2c1.O=C(O)CCC(=O)O [SUMATRIPTAN SUCCINATE] = Compound NOT metabolized
• CCOC(=O)C1=C[C@]2(CC)CCCN3CCc4c(n1c1ccccc41)[C@@H]32 = Compound NOT metabolized
• NS(=O)(=O)c1cc2c(cc1Cl)N=C(CSCc1ccccc1)NS2(=O)=O [BENZTHIAZIDE] = Compound NOT metabolized
• CN1CCc2c(c3ccccc3n2Cc2ccccc2)C1.CN1CCc2c(c3ccccc3n2Cc2ccccc2)C1.O=S(=O)(O)c1cccc2c(S(=O)(=O)O)cccc12 = Compound NOT metabolized
• CC(O)(CS(=O)(=O)c1ccc(F)cc1)C(=O)Nc1ccc(C#N)c(C(F)(F)F)c1 (configuration not stated) [BICALUTAMIDE] = Compound NOT metabolized
• CCCN1C[C@H](CSC)C[C@@H]2c3cccc4[nH]cc(c34)C[C@H]21.CS(=O)(=O)O [PERGOLIDE MESYLATE] = Compound NOT metabolized
• CCOC(=O)[C@H](CCc1ccccc1)N[C@H]1CCc2ccccc2N(CC(=O)O)C1=O = Compound metabolized
• Cc1cc2c(cc1S(N)(=O)=O)S(=O)(=O)CCC2 = Compound NOT metabolized
• CCCC1O[C@@H]2C[C@H]3[C@@H]4CCC5=CC(=O)C=C[C@]5(C)[C@H]4[C@@H](O)C[C@]3(C)[C@]2(C(=O)CO)O1 (some centres not stated) [BUDESONIDE] = Compound NOT metabolized
• N#Cc1ccc2c(c1)N(CCCN1CCC(O)CC1)c1ccccc1S2 = Compound NOT metabolized
• C=CCN1CC[C@]23c4c5ccc(O)c4O[C@H]2C(=O)CC[C@@]3(O)[C@H]1C5 = Compound metabolized
• COC(=O)[C@H](c1ccccc1Cl)N1CCc2sccc2C1.O=S(=O)(O)O [CLOPIDOGREL BISULFATE] = Compound NOT metabolized
• CC(=O)SCC(Cc1ccccc1)C(=O)NCC(=O)OCc1ccccc1 (configuration not stated) = Compound metabolized

Values compiled from ChEMBL document CHEMBL5303573.
